Target: T1, rhNav1.7α+β1-β2-β3 (rhesus monkey α subunit with human β …)
T1 construct: P2A cleaves it into α, β1, β2, β3; also called rhNav1.7-beta1-beta2-beta3
Experiment: binding FACS, CHO FlpIn cells
As shown below, each of these binders has a reported EC50 value.

binder	value unit	EC50
F010300477 (VHH, vs F0103275B05: A94W) VHH: EVQLVESGGGLVQPGGSLRLSCAASGSIFNINSMAWYRRAPGKQRELVASSTNGGSTNYADSVKGRFTISRDNAKRVYLQMNSLTPEDTAVYYCNWLLQPSIYDISRTYWGQGTLVTVSS	nM	170
F010301462 (VHH, vs F0103275B05: S27P, I28V, S33R, S50Y, N53P, S56D, N93R) VHH: EVQLVESGGGLVQPGGSLRLSCAASGPVFNINRMAWYRRAPGKQRELVAYSTPGGDTNYADSVKGRFTISRDNAKRVYLQMNSLTPEDTAVYYCRALLQPSIYDISRTYWGQGTLVTVSS	nM	23
F010300631 (VHH, vs F0103275B05: S27P, I28V, S50Y, N53P, N93R) VHH: EVQLVESGGGLVQPGGSLRLSCAASGPVFNINSMAWYRRAPGKQRELVAYSTPGGSTNYADSVKGRFTISRDNAKRVYLQMNSLTPEDTAVYYCRALLQPSIYDISRTYWGQGTLVTVSS	nM	45
F010300948 (VHH, vs F0103275B05: S27P, I28V, S33R, N53P, N93R, A94W, T101I) VHH: EVQLVESGGGLVQPGGSLRLSCAASGPVFNINRMAWYRRAPGKQRELVASSTPGGSTNYADSVKGRFTISRDNAKRVYLQMNSLTPEDTAVYYCRWLLQPSIYDISRIYWGQGTLVTVSS	nM	20
F010301461 (VHH, also called F0103275B05(S33R, S50Y, S56D, N93R)) VHH: EVQLVESGGGLVQPGGSLRLSCAASGSIFNINRMAWYRRAPGKQRELVAYSTNGGDTNYADSVKGRFTISRDNAKRVYLQMNSLTPEDTAVYYCRALLQPSIYDISRTYWGQGTLVTVSS	nM	24
F010300659 (VHH, also called F0103275B05(S27P, I28V, S50Y, N53P, G55W, S56D, T57W, N93R, A94W)+FLAG3-HIS6) VHH: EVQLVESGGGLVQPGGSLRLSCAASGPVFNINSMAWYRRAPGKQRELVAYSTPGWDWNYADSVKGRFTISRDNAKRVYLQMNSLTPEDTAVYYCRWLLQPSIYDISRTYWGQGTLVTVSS	nM	55
F010300990 (VHH, vs F0103275B05: S27P, I28V, S33R, S50Y, N53P, T101I) VHH: EVQLVESGGGLVQPGGSLRLSCAASGPVFNINRMAWYRRAPGKQRELVAYSTPGGSTNYADSVKGRFTISRDNAKRVYLQMNSLTPEDTAVYYCNALLQPSIYDISRIYWGQGTLVTVSS	nM	38
F010301459 (VHH, vs F0103275B05: S27P, I28V, S33R, N53P, S56D, N93R) VHH: EVQLVESGGGLVQPGGSLRLSCAASGPVFNINRMAWYRRAPGKQRELVASSTPGGDTNYADSVKGRFTISRDNAKRVYLQMNSLTPEDTAVYYCRALLQPSIYDISRTYWGQGTLVTVSS	nM	23
F010300468 (VHH, vs F0103275B05: N93R; also called F0103275B05(N93R)+FLAG3-HIS6; F103275B05(N93R)) VHH: EVQLVESGGGLVQPGGSLRLSCAASGSIFNINSMAWYRRAPGKQRELVASSTNGGSTNYADSVKGRFTISRDNAKRVYLQMNSLTPEDTAVYYCRALLQPSIYDISRTYWGQGTLVTVSS	nM	40
F010300316 (VHH, vs F0103275B05: T57W) VHH: EVQLVESGGGLVQPGGSLRLSCAASGSIFNINSMAWYRRAPGKQRELVASSTNGGSWNYADSVKGRFTISRDNAKRVYLQMNSLTPEDTAVYYCNALLQPSIYDISRTYWGQGTLVTVSS	nM	170

Taken from patent US20240002497A1.
